Recorded values, source PubChem BioAssay (NCATS).

Target: Cytochrome P450 2D6 (Homo sapiens) (UniProt P10635)
Sequence (P10635 whole entry, looked up): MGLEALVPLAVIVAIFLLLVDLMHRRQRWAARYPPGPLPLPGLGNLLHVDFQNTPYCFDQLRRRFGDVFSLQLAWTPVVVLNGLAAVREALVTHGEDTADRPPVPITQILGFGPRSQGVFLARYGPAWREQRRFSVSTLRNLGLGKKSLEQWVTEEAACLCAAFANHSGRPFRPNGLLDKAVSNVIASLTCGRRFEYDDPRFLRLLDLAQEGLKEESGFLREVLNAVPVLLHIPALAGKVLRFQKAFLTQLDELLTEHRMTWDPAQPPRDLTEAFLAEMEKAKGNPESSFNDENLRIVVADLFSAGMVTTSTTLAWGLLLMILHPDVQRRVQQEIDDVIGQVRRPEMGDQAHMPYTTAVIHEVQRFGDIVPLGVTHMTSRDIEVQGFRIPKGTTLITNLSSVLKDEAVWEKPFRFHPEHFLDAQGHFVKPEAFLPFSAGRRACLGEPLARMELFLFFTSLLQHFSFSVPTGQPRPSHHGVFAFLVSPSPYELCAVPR
Assay: qHTS Assay for Inhibitors and Substrates of Cytochrome P450 2D6 (AID 891); also: nearly all actives have a fitted effect of over 60% in size; also: potency is read from the fitted curve at half-maximal effect
Conditions: recombinant CYP2D6, luciferin-ME EGE luminescence; series mostly up to 57.1 µM
Experimental: NIH Molecular Libraries Screening Centers Network [MLSCN] NIH Chemical Genomics Center [NCGC] The P450 gene superfamily is involved in the metabolism and clearance of xenobiotics. […] The luciferin is then measured by luminescence after the addition of a luciferase detection reagent. […] Inhibitors and some substrates limit the production of luciferin, and decrease measured luminescence. […]
Inconclusive results are not listed. The source made the active and inactive calls. Calls follow the shape of the dose curve; as a rule, active = well fitted inhibition curve with a large enough effect; inconclusive = small, poorly fitted or top-dose-only effect; inactive = no such curve, though single readings can be large or run the other way.
QUANTITY_MEASURED: Potency

Look over these answered cases.
c1ccc(C2CC2)c(OCC2=NCCN2)c1: 5.01 µM (active)
NCC1(CC(=O)O)CCCCC1: inactive
CCCN(CCC)CCc1cccc2c1CC(=O)N2: 3.16 µM (active)
N#CC(C#N)=Cc1ccc(O)c(O)c1: inactive
COc1cc2c(c(OC)c1OC)-c1ccc(OC)c(=O)cc1[C@@H](NC(C)=O)CC2: 0.794 µM (active)

Which measured Potency value corresponds to Cc1c(OCC(F)(F)F)ccnc1CS(=O)c1nc2ccccc2[nH]1 (stereo unspecified) ?
31.6 µM (active)

----------
This listing pairs compounds with measured activity, negative = cell killing.
assay: Drug repurposing screens with cells derived from glioblastoma tumor samples (AID 1345199); details: GBM patient neurospheres viability, ATP luminescence, 48 h; at 21.2 µM (top of the series); tumour line B; also: % is scaled to controls: 0 for no effect and ±100 for the full control effect; nearly all actives have a fitted effect of over 40% in size
Records with an inconclusive call do not appear.
Kindly provide the numeric value in % only, without the unit symbol.

Recorded results for 3 compounds are shown here.
CNCC(O)c1ccc(O)cc1 (centres undefined): 9.4
Clc1ccc(CCC(Cn2ccnc2)Sc2c(Cl)cccc2Cl)cc1 (centres undefined): -25.1
CN(C)[C@@H]1C(=O)C(C(N)=O)=C(O)[C@@]2(O)C(=O)C3=C(O)c4c(O)cccc4[C@@](C)(O)[C@H]3C[C@@H]12: -16.2

Moving on to the next compound.
# query: activity, negative = cell killing of entry O=P1(NCCCl)OCCCN1CCCl (centres undefined)
-10.6

----------
tested on: DIV17; experiment: qHTS profiling for inhibitors of Plasmodium falciparum proliferation (AID 504749); also: nearly all actives have a fitted effect of over 60% in size; settings: P. falciparum in erythrocytes, SYBR Green DNA, 72 h; series mostly up to 28.7 µM
Inconclusive results are not listed. The source made the active and inactive calls. Calls come from the whole dose curve; as a rule, active = well fitted inhibition curve with a large enough effect; inconclusive = small, poorly fitted or top-dose-only effect; inactive = flat fitted curve, though single readings scatter.
Hello, when you answer, please use one of the following outcomes: active, inactive

Previously resolved entries follow.
CC(=O)[C@H]1CC[C@H]2[C@@H]3CC[C@H]4C[C@H](O)CC[C@]4(C)[C@H]3C(=O)C[C@]12C: inactive
Cc1ncc(CNC(=O)N(CCCl)N=O)c(N)n1: inactive
Cc1ccc(-c2nc3ccc(C)cn3c2CC(=O)N(C)C)cc1: inactive
CC[N+]1(C)CCCC(OC(=O)C(O)(c2ccccc2)c2ccccc2)C1 (configuration not stated): inactive
O=c1[nH]c2ccccc2n1CCCN1CCC(n2c(=O)[nH]c3cc(Cl)ccc32)CC1: active

Next up:
Kindly provide the recorded test outcome for the following molecule: CCC(C(N)=O)N1CCCC1=O (configuration not stated)
inactive

----------
assay: qHTS profiling of the MIPE4 collection as inhibitors of Plasmodium falciparum (HB3) proliferation (AID 743347);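 also: plate controls were DMSO vehicle wells for no effect and artemisinin wells for full effect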; settings: P. falciparum HB3 in erythrocytes, SYBR Green DNA, 72 h; at 28.5 µM (top of the series) unless noted
// returns F unless growth, % of control is strictly below 90%, in which case T

The following molecules have reported results that may help.
O=C1CC[C@@]2(O)[C@H]3Cc4ccc(O)c5c4[C@@]2(CCN3CC2CC2)[C@H]1O5: T
COc1cc([C@@H]2c3cc4c(cc3[C@H](O)[C@H]3COC(=O)[C@H]23)OCO4)cc(OC)c1OC: T

Quick check: growth, % of control of COC[C@@H](NC(C)=O)C(=O)NCc1ccccc1 under 90%?
F

Quick check: does Fc1ccc(C(OCCN2CCN(CCCc3ccccc3)CC2)c2ccc(F)cc2)cc1 have growth, % of control under 90%?
T

Hi there! Is growth, % of control for O=c1[nH]c2ccccc2n1CCCN1CCC(n2c(=O)[nH]c3cc(Cl)ccc32)CC1 below 90%, do you know?
T

Determine whether this molecule shows growth, % of control lower than 90% (ties excluded): C[C@@H]1O[C@@H](O[C@H]2C[C@@H](O)[C@]3(CO)[C@H]4[C@H](O)C[C@]5(C)[C@@H](C6=CC(=O)OC6)CC[C@]5(O)[C@@H]4CC[C@]3(O)C2)[C@H](O)[C@H](O)[C@H]1O
F

# check: growth, % of control < 90% for COc1ccc(C(=O)c2c(C)n(CCN3CCOCC3)c3ccccc23)cc1
F

Confirm or reject: growth, % of control of Cc1cc2c(s1)Nc1ccccc1N=C2N1CCN(C)CC1 lies strictly below 90%
F
